Reported EC50 values follow for various binders
Target or test system: SARS-CoV-2 spike receptor binding domain (RBD), S protein residues 319-539 (SARS-CoV-2, UniProt P0DTC2 319-539)
Protocol: ELISA on coated RBD
Metric name: EC50 (ng/mL)

# Binder, Recorded result
data = [
    ("C511 (antibody, V domains shown) VH: EVQLVESGGGLVQPGGSLRLSCAATEITVSSNYMTWVRQAPGKGLEWVSVIYPGGSTFYADSVKGRFSISRDNSKNTLYLQMNSLRAEDTAVYYCARDLVVYGLDCWGQGTLVTVSS VL: DIQLTQSPSFLSASVGDRVTITCRASQGISSYLAWYQQKPGKAPKLLIYAASTLQSGVPSRFSGSGSGTEFTLTISSLQPEDFATYYCQQLNTYPPPFGGGTKVEIK", 1.33),
    ("C502 (antibody, V domains shown) VH: QVQLVQSGAEVKKPGSSVKVSCKASGDTFSSHAINWVRQAPGQGLEWMGRSIPMLGVTTSAQKFKGRVTITADHSTSTVFMDLSSLRSDDTAIYYCARGVVGATPGSFDLWGQGTMVTVSS VL: EIVMTQSPATLSVSPGKRATLSCRASQSVRSNLAWYQQRPGQAPRLLIYDAATRATGIPTRFSGSGSGTEFTLTISSLQSEDFAVYYCQQYDNGLTFGGGTKVEIK", 6.48),
    ("C503 (antibody, V domains shown) VH: QVQLQESGPGLVQPSGTLSLSCTVTGGSISSNNWWSWVRQSPVKGLEWIGEIYHNGNINYNPSLKSRVTMSIDKSKNHFSLKLSSVTAADTAVYYCARGDVLDWFDPWGQGTLVTVS VL: QSALTQPASVSGSPGQSITFSCTGTSSDVGAYNYISWYQQHPGKAPKLMIYDVNNRPSGVSRRFSGSKSGNTASLTISGLQSEDEADYFCSSYAGNSTVRFGGGTKLTVL", 6.48),
]
